assay-remarks: Permeability from basolateral side to apical side in human Caco2 cells
Format: ADME, cell-based
cond: Caco-2, read-out: permeability
parameter: Papp B→A (nm/s)
Give a bare numeral; the unit nm/s is implied.

CS(=O)(=O)N1CCCCC(=O)N2CCc3cc(ccc32)Nc2ncc(C(F)(F)F)c(n2)NCc2cccnc21 :: 320

Then there is this compound:
Exercise: Fill in: Papp B→A of CN(c1ncccc1CNc1nc(Nc2ccc3c(c2)CC(=O)N3)ncc1C(F)(F)F)S(C)(=O)=O [PF-00562271] is ___
Solution: 290

---

assay-remarks: Permeability from apical side to basolateral side in human Caco2 cells
Format: ADME, cell-based
cond: Caco-2, read-out: permeability
parameter: Papp A→B (×10⁻⁶ cm/s)
# unit: ×10⁻⁶ cm/s | format: bare number

CS(=O)(=O)N1CCCCC(=O)N2CCc3cc(ccc32)Nc2ncc(C(F)(F)F)c(n2)NCc2cccnc21 :: 30

Exercise: Which value of Papp A→B has been reported for `CN(c1ncccc1CNc1nc(Nc2ccc3c(c2)CC(=O)N3)ncc1C(F)(F)F)S(C)(=O)=O` in the records?
Solution: 11
